Assay: NFAT Signaling Pathway (AID 444);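 further: carbachol stimulus at about its EC50 of 1 µM final; on the % scale 0 is the no-effect control and ±100 the full control effect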
Conditions: Jurkat NFAT-bla M1, carbachol, beta-lactamase ratio, 5 h; at 17.2 µM (top of the series) unless noted
Records with an inconclusive call do not appear. Calls of active or inactive are those of the source. The call rests on the fitted dose curve; in most records, active means well fitted curve in either direction with a large enough effect (not every such curve was filed as active); inconclusive means small, poorly fitted or top-dose-only effect, or another doubt; inactive means flat fitted curve, though single readings scatter.
This listing pairs compounds with measured activity change, negative = inhibition.

Examples with their reported activity change, negative = inhibition follow.
CCCCNC(=O)Nc1ccc(C(O)(C(=O)OC)C(F)(F)F)cc1 (stereo not given)	26.8% (inactive)
CC(=O)[C@@H]1CC[C@@H]2[C@H]3CC[C@H]4C[C@@H](O)CC[C@]4(C)[C@@H]3C(=O)C[C@]21C	-2.4% [at 38 µM] (inactive)
COc1ccc(C2SCC(=O)Nc3c2c(=O)[nH]n3C2CCCCCC2)cc1 (stereo not given)	1.93% (inactive)

Please look up its activity change, negative = inhibition: CCCCc1nc2ccccc2c(=O)n1-c1ccccc1O
-4.7% (inactive)

Please look up its activity change, negative = inhibition: COc1ccc(-n2c(SC)nc3ccccc3c2=O)cc1
12.3% (inactive)
